experiment: AUC in mouse at 50 mg/kg, administered through oral gavage by LC-MS analysis; format: ADME, organism-based; conditions: in vivo
Observed property: AUC (µM·h)
Provide the reading as a plain figure in µM·h.

(Q) # lookup: AUC of `Clc1cc(Cl)cc(CN[C@H]2CCCN(c3nc4nc(Cl)ccc4[nH]3)C2)c1`
(A) 104

====

experiment: Inhibition of Trypanosoma brucei methionyl tRNA synthetase preincubated for 15 mins followed by L-methionine substrate addition measured after 120 mins by ATP- depletion chemiluminescence assay
# thresholds on IC50 define classes: c1 (below 200 nM), c2 (200 nM to below 700 nM), c3 (700 nM or more)

(Q) In plain terms, what class is O=C(Cc1cc(Cl)cc(Cl)c1)N1CCCC(c2nc3ccccc3[nH]2)C1 (configuration not stated) ?
(A) c2

(Q) In plain terms, what class is O=C(Cc1cc(Cl)cc(Cl)c1)N1CCCC(c2nc3c(Cl)cccc3[nH]2)C1 (configuration not stated) ?
(A) c3

(Q) In plain terms, what class is `Clc1cc(Cl)cc(CNC2CCN(c3nc4nc(Cl)ccc4[nH]3)CC2)c1` ?
(A) c3

(Q) In plain terms, what class is O=C(Cc1cc(Cl)cc(Cl)c1)N1CCCC(c2nc3cc(Cl)ccc3[nH]2)C1 (configuration not stated) ?
(A) c1

(Q) In plain terms, what class is `Clc1cc(Cl)cc(CNCCCc2nc3ccc(Cl)nc3[nH]2)c1` ?
(A) c1

(Q) In plain terms, what class is `Clc1cc(Cl)cc(CNC2CN(c3nc4nc(Cl)ccc4[nH]3)C2)c1` ?
(A) c3

(Q) In plain terms, what class is Clc1cc(Cl)cc(CNC2CCCN(c3nc4nc(Cl)ccc4[nH]3)C2)c1 (configuration not stated) ?
(A) c1

(Q) In plain terms, what class is `O=C(N[C@H]1CCCN(c2nc3nc(Cl)ccc3[nH]2)C1)c1cc(Cl)cc(Cl)c1` ?
(A) c3

(Q) In plain terms, what class is Clc1cc(Cl)cc(NCC2CCCN(c3nc4nc(Cl)ccc4[nH]3)C2)c1 (configuration not stated) ?
(A) c1

(Q) In plain terms, what class is `Clc1cc(Cl)cc(CN[C@@H]2CCCN(c3nc4nc(Cl)ccc4[nH]3)C2)c1` ?
(A) c1

(Q) In plain terms, what class is `Clc1cc(Cl)cc(CN[C@@H]2CCC[C@H](c3nc4nc(Cl)ccc4[nH]3)C2)c1` ?
(A) c1

(Q) In plain terms, what class is `Clc1cc(Cl)cc(CNCCCc2nc3ccc(Cl)cc3[nH]2)c1` ?
(A) c2

(Q) In plain terms, what class is `O=C(Nc1cc(Cl)cc(Cl)c1)[C@H]1CCCN(c2nc3nc(Cl)ccc3[nH]2)C1` ?
(A) c3

(Q) In plain terms, what class is Clc1cc(Cl)cc(CNC2CCCC(c3nc4nc(Cl)ccc4[nH]3)C2)c1 (configuration not stated) ?
(A) c1

(Q) In plain terms, what class is Clc1cc(Cl)cc(CCN2CCCC(c3nc4nc(Cl)ccc4[nH]3)C2)c1 (configuration not stated) ?
(A) c3

(Q) In plain terms, what class is `Clc1cc(Cl)cc(CN[C@H]2CCCN(c3nc4nc(Cl)ccc4[nH]3)C2)c1` ?
(A) c1

(Q) In plain terms, what class is `Clc1cc(Cl)cc(CNCCSc2nc3nc(Cl)ccc3[nH]2)c1` ?
(A) c3

(Q) In plain terms, what class is `Clc1cc(Cl)cc(CN[C@H]2CCN(c3nc4ccc(Cl)nc4[nH]3)C2)c1` ?
(A) c1

(Q) In plain terms, what class is Clc1cc(Cl)cc(CNC2CCCC(c3nc4cc(Cl)ccc4[nH]3)C2)c1 (configuration not stated) ?
(A) c2

Source listed as ChEMBL document CHEMBL3877291.
